assay: Protein binding in plasma of BALB/c mouse assessed as unbound fraction at […] by ultracentrifugation; assay type: ADME

| Chemical Structure | fraction unbound at […] |
| --- | --- |
| C=CC(=O)N1CCN(c2nc(=O)n(-c3c(C)ccnc3C(C)C)c3nc(-c4c(O)cccc4F)c(F)cc23)[C@@H](C)C1 | 0.06 |

====

Below, each entry is listed alongside its reported pIC50.
target: GTPase KRas (Homo sapiens, UniProt P01116); assay: Inhibition of KRAS in human MIAPaca2 cells assessed as decrease in EGF-stimulated ERK1/2 phosphorylation preincubated for 2 hrs followed by EGF stimulation
Sequence (P01116 whole entry): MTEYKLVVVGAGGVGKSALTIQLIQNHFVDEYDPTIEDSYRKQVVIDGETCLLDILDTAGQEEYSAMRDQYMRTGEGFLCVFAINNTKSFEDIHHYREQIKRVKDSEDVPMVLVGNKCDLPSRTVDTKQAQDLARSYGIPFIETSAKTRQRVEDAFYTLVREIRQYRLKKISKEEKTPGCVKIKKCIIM
pIC50: −log10 of the molar value.

| Compound | Target Desc | pIC50 |
| --- | --- | --- |
| C=CC(=O)N1CCN(c2nnc(-c3ccccc3CC)c3cc(-c4c(O)cccc4F)c(Cl)cc23)CC1 | GTPase KRas (Homo sapiens, UniProt P01116) | 5.59 |
| C=CC(=O)N1CCN(c2nc(=O)n(-c3scnc3C(C)C)c3nc(-c4c(O)cccc4F)c(Cl)cc23)[C@@H](C)C1 | GTPase KRas (Homo sapiens, UniProt P01116) | 7.20 |
| C=CC(=O)N1CCN(c2nnc(-c3ccccc3)c3cc(-c4c(O)cccc4F)c(Cl)cc23)CC1 | GTPase KRas (Homo sapiens, UniProt P01116) | 4.24 |
| C=CC(=O)N1CCN(c2nc(=O)n(-c3ccccc3C3CC3)c3nc(-c4c(O)cccc4F)c(Cl)cc23)[C@@H](C)C1 | GTPase KRas (Homo sapiens, UniProt P01116) | 6.96 |
| C=CC(=O)N1CCN(c2nc(=O)n(-c3c(C)cccc3C)c3nc(-c4c(O)cccc4F)c(Cl)cc23)[C@@H](C)C1 | GTPase KRas (Homo sapiens, UniProt P01116) | 6.70 |
| C=CC(=O)N1CCN(c2nnc(-c3ccccc3C)c3cc(-c4c(O)cccc4F)c(Cl)cc23)CC1 | GTPase KRas (Homo sapiens, UniProt P01116) | 5.48 |
| C=CC(=O)N1CCN(c2nc(=O)n(-c3c(CC)cccc3CC)c3nc(-c4c(O)cccc4F)c(Cl)cc23)[C@@H](C)C1 | GTPase KRas (Homo sapiens, UniProt P01116) | 7.44 |
| C=CC(=O)N1CCN(c2nc(=O)n(-c3ccccc3C(C)(C)C)c3nc(-c4c(O)cccc4F)c(Cl)cc23)[C@@H](C)C1 | GTPase KRas (Homo sapiens, UniProt P01116) | 7.29 |
| C=CC(=O)N1CCN(c2nnc(-c3ccccc3Cl)c3cc(-c4c(O)cccc4F)c(Cl)cc23)CC1 | GTPase KRas (Homo sapiens, UniProt P01116) | 5.45 |
| C=CC(=O)N1CCN(c2nc(=O)n(-c3ccccc3C(C)C)c3nc(-c4c(O)cccc4F)c(Cl)cc23)[C@@H](C)C1 (stereo in doubt; (R)-18) | GTPase KRas (Homo sapiens, UniProt P01116) | 7.36 |
| C=CC(=O)N1CCN(c2nc(=O)n(-c3c(C4CC4)ncnc3C3CC3)c3nc(-c4c(O)cccc4F)c(Cl)cc23)[C@@H](C)C1 | GTPase KRas (Homo sapiens, UniProt P01116) | 7.44 |
| C=CC(=O)N1CCN(c2nnc(-c3ccccc3OC)c3cc(-c4c(O)cccc4F)c(Cl)cc23)CC1 | GTPase KRas (Homo sapiens, UniProt P01116) | 5.09 |
| C=CC(=O)N1CCN(c2nnc(-c3ccccc3C(C)C)c3cc(-c4c(O)cccc4F)c(Cl)cc23)CC1 | GTPase KRas (Homo sapiens, UniProt P01116) | 5.74 |
| C=CC(=O)N1CCN(c2nc(=O)n(-c3ccnn3C(C)C)c3nc(-c4c(O)cccc4F)c(Cl)cc23)[C@@H](C)C1 | GTPase KRas (Homo sapiens, UniProt P01116) | 6.66 |
| C=CC(=O)N1CCN(c2nc(=O)n(-c3ccccc3C(C)C)c3cc(-c4ccccc4Cl)c(Cl)cc23)[C@@H](C)C1 | GTPase KRas (Homo sapiens, UniProt P01116) | 6.66 |
| C=CC(=O)N1CCN(c2nc(=O)n(-c3ccccc3C(C)C)c3cc(-c4c(O)cccc4F)c(Cl)cc23)[C@@H](C)C1 | GTPase KRas (Homo sapiens, UniProt P01116) | 7.55 |
| C=CC(=O)N1CCN(c2ncnc3c(F)c(-c4c(O)cccc4F)c(Cl)cc23)CC1 | GTPase KRas (Homo sapiens, UniProt P01116) | 6.08 |
| C=CC(=O)N1CCN(c2nc(=O)n(-c3c(C(C)C)ncnc3C(C)C)c3nc(-c4c(O)cccc4F)c(Cl)cc23)[C@@H](C)C1 | GTPase KRas (Homo sapiens, UniProt P01116) | 7.60 |
| C=CC(=O)N1CCN(c2nc(=O)n(-c3ccccc3C(C)C)c3cc(-c4c(C)ccc5[nH]ncc45)c(Cl)cc23)CC1 | GTPase KRas (Homo sapiens, UniProt P01116) | 8.10 |
| C=CC(=O)N1CCN(c2nc(=O)n(-c3ncccc3C(C)C)c3nc(-c4c(O)cccc4F)c(Cl)cc23)[C@@H](C)C1 | GTPase KRas (Homo sapiens, UniProt P01116) | 7.28 |
| C=CC(=O)N1CCN(c2nc(=O)n(-c3c(C)cccc3C(C)C)c3nc(-c4c(O)cccc4F)c(Cl)cc23)[C@@H](C)C1 | GTPase KRas (Homo sapiens, UniProt P01116) | 7.55 |
| C=CC(=O)N1CCN(c2nnc(-c3ccccc3C3CC3)c3cc(-c4c(O)cccc4F)c(Cl)cc23)CC1 | GTPase KRas (Homo sapiens, UniProt P01116) | 5.15 |
